experiment-summary: Solubility in PBS
Type: physicochemical
experimental-parameters: aqueous buffer
reported-endpoint: solubility (µM)
Answer format: numeric, µM implied, no suffix.

Quick one: give measured solubility for COC(=O)Cn1nc(-c2cccc(OC)c2)c2ccccc21 55

###

Listing: pIC50 of selected molecules
Test system: C. albicans CaCi-2
experiment-summary: Primary screen and dose-response retest: CaCi-2 with 8 µg/mL fluconazole (Alamar Blue growth)
Assay type: cell-based, Candida albicans
experimental-parameters: Candida albicans, CACI2; 37 °C, 48 hours, with test compound and 8 µg/mL (26 µM) fluconazole; average of at least three independent experiments in duplicate; inactive = negligible activity at concentrations below 26 µM
Interpret pIC50 as the negative base-10 log of the concentration measured in mol/L.

COC(=O)Cn1nc(-c2ccccc2OC)c2ccccc21 [Compound 40] | 5.03
COC(=O)Cn1nc(-c2cccc(N(C)C)c2)c2ccccc21 [Compound 37] | 6.10
COC(=O)Cn1nc(-c2ccccc2)c2cc(C)ccc21 [Compound 11] | 5.28
COC(=O)Cn1nc(-c2ccccc2)c2ccc(OC)cc21 [Compound 16] | 5.02
COC(=O)Cn1nc(-c2ccccc2)c2ccc(Cl)cc21 [Compound 17] | 5.40

Quick one: give measured pIC50 for COC(=O)Cn1nc(-c2ccccc2)c2cc(F)ccc21 [Compound 13] 4.95

Quick one: give measured pIC50 for COC(=O)Cn1nc(-c2ccccc2)c2cc(OC)ccc21 [Compound 12] 4.83

Quick one: give measured pIC50 for COC(=O)Cn1nc(-c2ccccc2C)c2ccccc21 [Compound 39] 5.28

Quick one: give measured pIC50 for COC(=O)Cn1nc(C2CCCCC2)c2ccccc21 [Compound 25] 5.64

###

experiment-summary: Secondary assay 3: fibroblast toxicity
Assay type: cell-based
experimental-parameters: mouse, NIH-3T3 fibroblasts, murine 3T3 fibroblasts
reported-endpoint: IC50 at 48 h

Quick one: give measured IC50 at 48 h for COC(=O)Cn1nc(-c2cccc(OC)c2)c2ccccc21 > 26 µM
